Target: T1, ZFP SBS#1231 (synthetic)
T1 chain: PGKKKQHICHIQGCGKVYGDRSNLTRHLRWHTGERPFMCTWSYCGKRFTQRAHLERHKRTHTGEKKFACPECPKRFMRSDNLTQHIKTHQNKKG
Assay: EMSA
Settings: tags: MBP fusion
REPORTED_PROPERTY: Kd (nM)

[[record]]
binder = "AAGGGAGAC (dsDNA) DNA 1: AAGGGAGAC DNA 2: GTCTCCCTT"
reported_property = "Kd"
recorded_result = 0.213

